Item-by-item account of T1/2 liver microsomes Human
- ASSAY_PROTOCOL: Metabolic stability in liver microsomes, human
- Format: in vitro ADME
- Procedure: Test Example 3: Evaluation of the Metabolic Stability of Liver Microsomes (Mouse and Human) In Vitro Microsomes were taken out from the −80° C. refrigerator, rapidly melted in a 37° C. water bath and placed on ice until ready to use. […] The diluted starter solution was added in sufficient quantity to the dispensing plate to facilitate the multichannel pipette aspiration operation. […]
Your answer is read as min, so omit the unit and give the number.

Some entries whose results are on file:
{"MOLECULE": "C=CCn1c(=O)c2cnc(Nc3ccc(N4CCC(N(C)C)CC4)c(C)c3)nc2n1-c1ccc2c(n1)[C@@](C)(O)C1(CC2)CC1 (single isomer, unassigned) [Compound 52a]", "UNIT_SYMBOL": "min", "VAL": 26.24}
{"MOLECULE": "C=CCn1c(=O)c2cnc(Nc3ccc(N4CC5CC(C4)N5C)cc3)nc2n1-c1ccc2c(n1)[C@@](C)(O)C1(CC2)CC1", "UNIT_SYMBOL": "min", "VAL": 63.40}

Entry under review: C=CCn1c(=O)c2cnc(Nc3ccc(N4C[C@H]5CN(C)C[C@H]5C4)cc3)nc2n1-c1ccc2c(n1)C(O)(CC)C1(CC1)C2 (stereo partly drawn) . Reported T1/2 liver microsomes Human?
29.95

* * *

- ASSAY_PROTOCOL: Pharmacokinetics on single dose in Beagle dogs (iv and po)
- Format: in vivo, male Beagle dogs
- CONDITION: male, dog, plasma, iv 2 mg/kg
RECORDED_METRIC: AUC(0-t) (ng·h/mL)
Your answer is read as ng·h/mL, so omit the unit and give the number.

Entry under review: C=CCn1c(=O)c2cnc(Nc3ccc(N4CCN(C)CC4)cc3)nc2n1-c1cccc(C(C)(C)O)n1 [AZD1775, reference compound] . Reported AUC(0-t)?
877

* * *

- ASSAY_PROTOCOL: Pharmacokinetics on single dose in mice (iv and po)
- Type: in vivo, male ICR mice
- CONDITION: male, mouse, plasma; ICR mice, iv 1 mg/kg
- Procedure: The present experiment aimed to study the pharmacokinetics in the plasma of male ICR mice after the administration. […] The samples were detected for drug concentration at each time point by LC-MS/MS. Pharmacokinetic parameters terminal elimination half-life (t½), area under the curve (AUC), apparent volume of distribution (Vd), clearance (CL), mean residence time (MRT), and Cmax were calculated using the non-compailinental model of Phoenix WinNonlin 5.2. […]
RECORDED_METRIC: half-life (min)
Your answer is read as min, so omit the unit and give the number.

Entry under review: C=CCn1c(=O)c2cnc(Nc3ccc(N4CCN(C)CC4)cc3)nc2n1-c1cccc(C(C)(C)O)n1 [AZD1775, reference compound] . Reported half-life?
30

* * *

- ASSAY_PROTOCOL: Metabolic stability in liver microsomes, human
- Type: in vitro ADME
RECORDED_METRIC: T1/2 liver microsomes Human (h)
Your answer is read as h, so omit the unit and give the number.

{"COMPOUND": "C=CCn1c(=O)c2cnc(Nc3ccc(N4CCC5(CCN(C)CC5)CC4)cc3)nc2n1-c1ccc2c(n1)[C@](C)(O)C1(CC2)CC1 (racemic)", "T1/2 liver microsomes Human, h": 1.296}

// next item, T1/2 liver microsomes Human requested
Entry under review: C=CCn1c(=O)c2cnc(Nc3ccc(N4CCN(C)CC4)cc3)nc2n1-c1ccc2c(n1)[C@H](O)C1(CC2)CC1 (single isomer, unassigned) . Reported T1/2 liver microsomes Human?
0.747

* * *

Item-by-item account of IC50
- TARGET_UNDER_TEST: Wee1 protein (Homo sapiens (Human))
- Sequence (P30291 whole entry): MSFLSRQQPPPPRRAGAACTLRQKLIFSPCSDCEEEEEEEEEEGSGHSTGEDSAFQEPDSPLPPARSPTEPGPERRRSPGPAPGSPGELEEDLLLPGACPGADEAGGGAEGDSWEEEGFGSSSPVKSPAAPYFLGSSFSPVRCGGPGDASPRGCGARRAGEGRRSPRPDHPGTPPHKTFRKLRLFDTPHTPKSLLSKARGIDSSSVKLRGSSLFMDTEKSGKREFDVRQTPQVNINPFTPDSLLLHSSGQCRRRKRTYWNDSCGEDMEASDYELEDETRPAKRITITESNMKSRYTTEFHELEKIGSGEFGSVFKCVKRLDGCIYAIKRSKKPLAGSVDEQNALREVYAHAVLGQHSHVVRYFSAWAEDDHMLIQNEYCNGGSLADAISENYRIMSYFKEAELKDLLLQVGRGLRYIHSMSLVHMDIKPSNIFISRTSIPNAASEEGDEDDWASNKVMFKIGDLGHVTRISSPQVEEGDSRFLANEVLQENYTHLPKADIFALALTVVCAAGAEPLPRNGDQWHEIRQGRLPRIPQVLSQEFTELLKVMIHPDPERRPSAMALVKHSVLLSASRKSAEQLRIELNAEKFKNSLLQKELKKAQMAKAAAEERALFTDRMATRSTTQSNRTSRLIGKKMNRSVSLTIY
- ASSAY_PROTOCOL: TR-FRET binding of compound to Wee1 protein and Tracer 178
- CONDITION: Tracer 178, read-out: IC50, inhibitory activity against Wee1 kinase

Some entries whose results are on file:
{"COMPOUND": "C=CCn1c(=O)c2cnc(Nc3ccc(N4CC5CC(C4)N5CC)cc3)nc2n1-c1ccc2c(n1)[C@](C)(O)C1(CC2)CC1 (single isomer, unassigned) [Compound 51a]", "IC50": "≤ 5 nM"}
{"COMPOUND": "C=CCn1c(=O)c2cnc(Nc3ccc(N4CCN(C)CC4)cc3)nc2n1-c1ccc2c(c1)N(CC)C(=O)C21CC1 [Compound 1]", "IC50": "10 to 100 nM"}
{"COMPOUND": "C=CCn1c(=O)c2cnc(Nc3ccc(N4CCC5(CCN(C)CC5)CC4)cc3)nc2n1-c1ccc2c(n1)[C@H](O)C1(CC2)CC1 [Compound 37b]", "IC50": "5 to 10 nM"}

// next item, IC50 requested
# returns recorded IC50 (system: Wee1 protein (Homo sapiens (Human))) for C=CCn1c(=O)c2cnc(Nc3ccc(N4CCC5(CCN(C)CC5)CC4)c(C)c3)nc2n1-c1ccc2c(n1)[C@H](O)C1(CC2)CC1 (single isomer, unassigned) [Compound 61b]
5 to 10 nM

* * *

- Test system: HK2 cells
- ASSAY_PROTOCOL: Cell Titer-Glo anti-proliferation, normal cells HK2
- Format: cell-based
Item-by-item account of pIC50
Reminder that pIC50 means the negative base-10 logarithm of the concentration expressed in mol/L.

Entry under review: C=CCn1c(=O)c2cnc(Nc3ccc(N4CCN(C)CC4)cc3)nc2n1-c1ccc2c(n1)[C@H](O)C1(CC2)CC1 (single isomer, unassigned) . Reported pIC50?
5.89

Entry under review: C=CCn1c(=O)c2cnc(Nc3ccc(N4CCC5(CCN(C)CC5)CC4)cc3)nc2n1-c1ccc2c(n1)[C@](C)(O)C1(CC2)CC1 (single isomer, unassigned) [Compound 44a] . Reported pIC50?
6.44

* * *

- TARGET_UNDER_TEST: hERG potassium channel (Homo sapiens (Human), UniProt Q12809)
- Sequence (Q12809 whole entry): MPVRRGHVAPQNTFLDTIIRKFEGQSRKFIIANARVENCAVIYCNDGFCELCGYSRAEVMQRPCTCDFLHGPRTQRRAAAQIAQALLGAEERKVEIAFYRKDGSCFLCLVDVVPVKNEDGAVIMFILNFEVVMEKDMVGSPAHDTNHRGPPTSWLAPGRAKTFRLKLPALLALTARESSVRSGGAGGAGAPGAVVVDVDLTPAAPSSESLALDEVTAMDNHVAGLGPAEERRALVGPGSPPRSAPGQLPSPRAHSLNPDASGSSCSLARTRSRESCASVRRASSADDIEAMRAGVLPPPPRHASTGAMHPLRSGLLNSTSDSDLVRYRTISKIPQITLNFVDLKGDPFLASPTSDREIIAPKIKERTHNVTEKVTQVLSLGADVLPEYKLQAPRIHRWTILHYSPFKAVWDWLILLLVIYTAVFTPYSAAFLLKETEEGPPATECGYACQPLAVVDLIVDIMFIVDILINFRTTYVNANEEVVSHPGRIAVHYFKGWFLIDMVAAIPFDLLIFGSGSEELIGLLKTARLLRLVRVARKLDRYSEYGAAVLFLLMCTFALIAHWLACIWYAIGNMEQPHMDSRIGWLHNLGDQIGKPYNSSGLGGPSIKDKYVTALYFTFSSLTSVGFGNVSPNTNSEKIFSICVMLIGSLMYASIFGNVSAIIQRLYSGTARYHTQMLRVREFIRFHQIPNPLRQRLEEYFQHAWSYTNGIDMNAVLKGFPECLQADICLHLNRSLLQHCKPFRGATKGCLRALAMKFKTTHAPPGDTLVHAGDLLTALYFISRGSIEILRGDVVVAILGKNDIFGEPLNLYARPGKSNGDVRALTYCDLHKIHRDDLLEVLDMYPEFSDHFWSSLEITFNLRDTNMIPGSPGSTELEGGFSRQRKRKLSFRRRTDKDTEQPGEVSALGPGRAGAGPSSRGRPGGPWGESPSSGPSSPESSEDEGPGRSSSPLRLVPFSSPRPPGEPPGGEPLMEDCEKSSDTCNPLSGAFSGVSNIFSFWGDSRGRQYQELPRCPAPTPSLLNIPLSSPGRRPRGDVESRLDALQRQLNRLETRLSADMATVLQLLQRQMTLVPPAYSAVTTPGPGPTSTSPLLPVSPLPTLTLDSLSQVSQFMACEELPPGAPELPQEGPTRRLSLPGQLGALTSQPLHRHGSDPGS
- ASSAY_PROTOCOL: hERG potassium channel inhibition, patch clamp in CHO hERG cells
- CONDITION: test concentration 20 μM
RECORDED_METRIC: hERG Inhibition (%)
Your answer is read as %, so omit the unit and give the number.

{"MOLECULE": "C=CCn1c(=O)c2cnc(Nc3ccc(N4CCC(N(C)C)CC4)c(C)c3)nc2n1-c1ccc2c(n1)[C@H](O)C1(CC2)CC1 (single isomer, unassigned) [Compound 48b]", "RECORDED_METRIC": "hERG Inhibition", "VAL": 90.92}
{"MOLECULE": "C=CCn1c(=O)c2cnc(Nc3ccc(N4CCN(C)CC4)cc3)nc2n1-c1ccc2c(n1)[C@H](O)C1(CC2)CC1 (single isomer, unassigned) [Compound 4b]", "RECORDED_METRIC": "hERG Inhibition", "VAL": 42.42}
{"MOLECULE": "[2H][C@]1(O)c2nc(-n3c4nc(Nc5ccc(N6CC7CC(C6)N7C(C)C)cc5)ncc4c(=O)n3CC=C)ccc2CCC12CC2 [Compound 39b]", "RECORDED_METRIC": "hERG Inhibition", "VAL": 67.24}
{"MOLECULE": "C=CCn1c(=O)c2cnc(Nc3ccc(N4CCC5(CCN(C)CC5)CC4)cc3)nc2n1-c1ccc2c(n1)[C@](C)(O)C1(CC2)CC1 (racemic) [Compound 44]", "RECORDED_METRIC": "hERG Inhibition", "VAL": 91.56}
{"MOLECULE": "[2H][C@]1(O)c2nc(-n3c4nc(Nc5ccc(N6CCC7(CCN(C)CC7)CC6)cc5)ncc4c(=O)n3CC=C)ccc2CCC12CC2 [Compound 37b]", "RECORDED_METRIC": "hERG Inhibition", "VAL": 34.70}
{"MOLECULE": "C=CCn1c(=O)c2cnc(Nc3ccc(N4CCN(C)CC4)cc3)nc2n1-c1ccc2c(n1)[C@@](O)(CC)CC2 [ZnC3, reference compound]", "RECORDED_METRIC": "hERG Inhibition", "VAL": 18.05}

// next item, hERG Inhibition requested
Entry under review: C=CCn1c(=O)c2cnc(Nc3ccc(N4CC5CC(C4)N5C)cc3)nc2n1-c1ccc2c(n1)C(C)(O)C1(CC2)CC1 (stereo not shown) [Compound 7] . Reported hERG Inhibition?
95.13

* * *

- ASSAY_PROTOCOL: Pharmacokinetics on single dose in mice (iv and po)
- Format: in vivo, male ICR mice
- CONDITION: male, mouse, plasma; ICR mice, po 10 mg/kg
- Procedure: The present experiment aimed to study the pharmacokinetics in the plasma of male ICR mice after the administration. […] The samples were detected for drug concentration at each time point by LC-MS/MS. Pharmacokinetic parameters terminal elimination half-life (t½), area under the curve (AUC), apparent volume of distribution (Vd), clearance (CL), mean residence time (MRT), and Cmax were calculated using the non-compailinental model of Phoenix WinNonlin 5.2. […]
RECORDED_METRIC: half-life (min)
Your answer is read as min, so omit the unit and give the number.

Entry under review: C=CCn1c(=O)c2cnc(Nc3ccc(N4CCN(C)CC4)cc3)nc2n1-c1cccc(C(C)(C)O)n1 [AZD1775, reference compound] . Reported half-life?
52.2
